Numbers sourced from the supplement of paper PMC11246515.

assay: total protein half-life in vivo (active degradation + dilution); higher = more stable protein; details: wild type E. coli NCM3722; growth: C-lim chemostat; doubling time 3 h
Readings of total protein half-life in vivo for the listed sequences
Measurement Label: total protein half-life in vivo (h)

* MNLSTKQKQHLKGLAHPLKPVVLLGSNGLTEGVLAEIEQALEHHELIKVKIATEDRETKTLIVEAIVRETGACNVQVIGKTLVLYRPTKERKISLPR [P0AGK4] | 3.11
* MPLLHLLRQNPVIAAVKDNASLQLAIDSECQFISVLYGNICTISNIVKKIKNAGKYAFIHVDLLEGASNKEVVIQFLKLVTEADGIISTKASMLKAARAEGFFCIHRLFIVDSISFHNIDKQVAQSNPDCIEILPGCMPKVLGWVTEKIRQPLIAGGLVCDEEDARNAINAGVVALSTTNTGVWTLAKKLL | 2.77
* MATTHLDVCAVVPAAGFGRRMQTECPKQYLSIGNQTILEHSVHALLAHPRVKRVVIAISPGDSRFAQLPLANHPQITVVDGGDERADSVLAGLKAAGDAQWVLVHDAARPCLHQDDLARLLALSETSRTGGILAAPVRDTMKRAEPGKNAIAHTVDRNGLWHALTPQFFPRELLHDCLTRALNEGATITDEASALEYCGFHPQLVEGRADNIKVTRPEDLALAEFYLTRTIHQENT | 3.29
* MFDIGVNLTSSQFAKDRDDVVACAFDAGVNGLLITGTNLRESQQAQKLARQYSSCWSTAGVHPHDSSQWQAATEEAIIELAAQPEVVAIGECGLDFNRNFSTPEEQERAFVAQLRIAADLNMPVFMHCRDAHERFMTLLEPWLDKLPGAVLHCFTGTREEMQACVAHGIYIGITGWVCDERRGLELRELLPLIPAEKLLIETDAPYLLPRDLTPKPSSRRNEPAHLPHILQRIAHWRGEDAAWLAATTDANVKTLFGIAF | 2.67

---

assay: total protein half-life in vivo (active degradation + dilution); higher = more stable protein; conditions: wild type E. coli NCM3722; growth: C-lim chemostat; doubling time 12 h
Measurement Label: total protein half-life in vivo

- MFDFASYHRAATLADAINLLADNPQAKLLAGGTDVLIQLHHHNDRYRHIVDIHNLAELRGITLAEDGSLRIGSATTFTQLIEDPITQRHLPALCAAATSIAGPQIRNVATYGGNICNGATSADSATPTLIYDAKLEIHSPRGVRFVPINGFHTGPGKVSLEHDEILVAFHFPPQPKEHAGSAHFKYAMRDAMDISTIGCAAHCRLDNGNFSELRLAFGVAAPTPIRCQHAEQTAQNAPLNLQTLEAISESVLQDVAPRSSWRASKEFRLHLIQTMTKKVISEAVAAAGGKLQ: 6.07 h
- MQERHTEQDYRALLIADTPIIDVRAPIEFEHGAMPAAINLPLMNNDERAAVGTCYKQQGSDAALALGHKLVAGEIRQQRMDAWRAACLQNPQGILCCARGGQRSHIVQSWLHAAGIDYPLVEGGYKALRQTAIQATIELAQKPIVLIGGCTGSGKTLLVQQQPNGVDLEGLARHRGSAFGRTLQPQLSQASFENLLAAEMLKTDARQNLRLWVLEDESRMIGSNHLPECLRERMTQAAIAVVEDPFEIRLERLNEEYFLRMHHDFTHAYGDEQGWQEYCEYLHHGLSAIKRRLGLQRYNELAARLDAALTTQLTTGSTDGHLAWLVPLLEEYYDPMYRYQLEKKAEKVVFRGEWAEVAEWVKAR: 10.2 h

---

Readings of total protein half-life in vivo for the listed sequences
assay: total protein half-life in vivo (active degradation + dilution); higher = more stable protein; settings: wild type E. coli NCM3722; growth: N-lim chemostat; doubling time 12 h
Measurement Label: total protein half-life in vivo

• MSITLSDSAAARVNTFLANRGKGFGLRLGVRTSGCSGMAYVLEFVDEPTPEDIVFEDKGVKVVVDGKSLQFLDGTQLDFVKEGLNEGFKFTNPNVKDECGCGESFHV [P0AAC8] = 1.26 h
• MNDAIPRPQAKTRKALTPLLEIRNLTKSYDGQHAVDDVSLTIYKGEIFALLGASGCGKSTLLRMLAGFEQPSAGQIMLDGVDLSQVPPYLRPINMMFQSYALFPHMTVEQNIAFGLKQDKLPKAEIASRVNEMLGLVHMQEFAKRKPHQLSGGQRQRVALARSLAKRPKLLLLDEPMGALDKKLRDRMQLEVVDILERVGVTCVMVTHDQEEAMTMAGRIAIMNRGKFVQIGEPEEIYEHPTTRYSAEFIGSVNVFEGVLKERQEDGLVLDSPGLVHPLKVDADASVVDNVPVHVALRPEKIMLCEEPPANGCNFAVGEVIHIAYLGDLSVYHVRLKSGQMISAQLQNAHRHRKGLPTWGDEVRLCWEVDSCVVLTV = 11.5 h
• MNNRVHQGHLARKRFGQNFLNDQFVIDSIVSAINPQKGQAMVEIGPGLAALTEPVGERLDQLTVIELDRDLAARLQTHPFLGPKLTIYQQDAMTFNFGELAEKMGQPLRVFGNLPYNISTPLMFHLFSYTDAIADMHFMLQKEVVNRLVAGPNSKAYGRLSVMAQYYCNVIPVLEVPPSAFTPPPKVDSAVVRLVPHATMPHPVKDVRVLSRITTEAFNQRRKTIRNSLGNLFSVEVLTGMGIDPAMRAENISVAQYCQMANYLAENAPLQES = 9.91 h

---

assay: total protein half-life in vivo (active degradation + dilution); higher = more stable protein; details: E. coli NCM3722 delta-hslV; growth: N-lim chemostat; doubling time 6 h
Measurement Label: total protein half-life in vivo (h)

• MDKQSLHETAKRLALELPFVELCWPFGPEFDVFKIGGKIFMLSSELRGVPFINLKSDPQKSLLNQQIYPSIKPGYHMNKKHWISVYPGEEISEALLRDLINDSWNLVVDGLAKRDQKRVRPG [P0AAT2] = 5.97
• MATLKDIAIEAGVSLATVSRVLNDDPTLNVKEETKHRILEIAEKLEYKTSSARKLQTGAVNQHHILAIYSYQQELEINDPYYLAIRHGIETQCEKLGIELTNCYEHSGLPDIKNVTGILIVGKPTPALRAAASALTDNICFIDFHEPGSGYDAVDIDLARISKEIIDFYINQGVNRIGFIGGEDEPGKADIREVAFAEYGRLKQVVREEDIWRGGFSSSSGYELAKQMLAREDYPKALFVASDSIAIGVLRAIHERGLNIPQDISLISVNDIPTARFTFPPLSTVRIHSEMMGSQGVNLVYEKARDGRALPLLVFVPSKLKLRGTTR = 5.31
• MKMNKSLIVLCLSAGLLASAPGISLADVNYVPQNTSDAPAIPSAALQQLTWTPVDQSKTQTTQLATGGQQLNVPGISGPVAAYSVPANIGELTLTLTSEVNKQTSVFAPNVLILDQNMTPSAFFPSSYFTYQEPGVMSADRLEGVMRLTPALGQQKLYVLVFTTEKDLQQTTQLLDPAKAYAKGVGNSIPDIPDPVARHTTDGLLKLKVKTNSSSSVLVGPLFGSSAPAPVTVGNTAAPAVAAPAPAPVKKSEPMLNDTESYFNTAIKNAVAKGDVDKALKLLDEAERLGSTSARSTFISSVKGKG = 6.28

---

Readings of total protein half-life in vivo for the listed sequences
assay: total protein half-life in vivo (active degradation + dilution); higher = more stable protein; conditions: E. coli NCM3722 delta-clpP delta-lon delta-hslV; growth: N-lim chemostat; doubling time 6 h
Measurement Label: total protein half-life in vivo

* MKPSSSNSRSKGHAKARRKTREELDQEARDRKRQKKRRGHAPGSRAAGGNTTSGSKGQNAPKDPRIGSKTPIPLGVTEKVTKQHKPKSEKPMLSPQAELELLETDERLDALLERLEAGETLSAEEQSWVDAKLDRIDELMQKLGLSYDDDEEEEEDEKQEDMMRLLRGN [P0A8H6] | 5.38 h
* MQFSKMHGLGNDFMVVDAVTQNVFFSPELIRRLADRHLGVGFDQLLVVEPPYDPELDFHYRIFNADGSEVAQCGNGARCFARFVRLKGLTNKRDIRVSTANGRMVLTVTDDDLVRVNMGEPNFEPSAVPFRANKAEKTYIMRAAEQTILCGVVSMGNPHCVIQVDDVDTAAVETLGPVLESHERFPERANIGFMQVVKREHIRLRVYERGAGETQACGSGACAAVAVGIQQGLLAEEVRVELPGGRLDIAWKGPGHPLYMTGPAVHVYDGFIHL [P0A6K1] | 6.36 h
* MSEQLTDQVLVERVQKGDQKAFNLLVVRYQHKVASLVSRYVPSGDVPDVVQEAFIKAYRALDSFRGDSAFYTWLYRIAVNTAKNYLVAQGRRPPSSDVDAIEAENFESGGALKEISNPENLMLSEELRQIVFRTIESLPEDLRMAITLRELDGLSYEEIAAIMDCPVGTVRSRIFRAREAIDNKVQPLIRR [P0AGB6] | 5.28 h

---

test: total protein half-life in vivo (active degradation + dilution); higher = more stable protein; conditions: E. coli NCM3722 delta-lon; growth: N-lim chemostat; doubling time 6 h
Measurement Label: total protein half-life in vivo (h)

* MTAPSQVLKIRRPDDWHLHLRDGDMLKTVVPYTSEIYGRAIVMPNLAPPVTTVEAAVAYRQRILDAVPAGHDFTPLMTCYLTDSLDPNELERGFNEGVFTAAKLYPANATTNSSHGVTSIDAIMPVLERMEKIGMPLLVHGEVTHADIDIFDREARFIESVMEPLRQRLTALKVVFEHITTKDAADYVRDGNERLAATITPQHLMFNRNHMLVGGVRPHLYCLPILKRNIHQQALRELVASGFNRVFLGTDSAPHARHRKESSCGCAGCFNAPTALGSYATVFEEMNALQHFEAFCSVNGPQFYGLPVNDTFIELVREEQQVAESIALTDDTLVPFLAGETVRWSVKQ | 5.46
* MYYPFVRKALFQLDPERAHEFTFQQLRRITGTPFEALVRQKVPAKPVNCMGLTFKNPLGLAAGLDKDGECIDALGAMGFGSIEIGTVTPRPQPGNDKPRLFRLVDAEGLINRMGFNNLGVDNLVENVKKAHYDGVLGINIGKNKDTPVEQGKDDYLICMEKIYAYAGYIAINISSPNTPGLRTLQYGEALDDLLTAIKNKQNDLQAMHHKYVPIAVKIAPDLSEEELIQVADSLVRHNIDGVIATNTTLDRSLVQGMKNCDQTGGLSGRPLQLKSTEIIRRLSLELNGRLPIIGVGGIDSVIAAREKIAAGASLVQIYSGFIFKGPPLIKEIVTHI [P0A7E1] | 6.48
